# System: Ipomea hederaceae (IPOHE)
# PROTOCOL: Pre-emergence biological efficacy (Example 13)
# Assay type: in vivo
# RECORDED CONDITIONS: Ipomoea hederacea, 312 h; pre-emergence, 1,000 g/ha, after 13 days; read-out: Percentage damage IPOHE
ATTRIBUTE MEASURED: pest or weed control at 1000 g/ha (%)
Expressed in %, but write only the number.

Solved entries (count: 3):
C=Cc1c(NCc2ccccc2[N+](=O)[O-])nc(-c2ccc(Cl)c(OC)c2F)nc1C(=O)OC: 100
C=Cc1c(NCc2ccco2)nc(-c2ccc(Cl)c(OC)c2F)nc1C(=O)OCc1ccccc1: 80
C/C=C\c1c(N)nc(-c2ccc(Cl)c(OC)c2F)nc1C(=O)OC: 100

Need pest or weed control at 1000 g/ha of "C=Cc1c(NCc2ccccc2F)nc(-c2ccc(Cl)c(OC)c2F)nc1C(=O)OC" , thanks.
50

Need pest or weed control at 1000 g/ha of "C/C=C/c1c(N)nc(-c2ccc(Cl)c(N(C)C)c2F)nc1C(=O)OC" , thanks.
0
